System: HaCat
method_description: Cytotoxic Profiling of Annotated Libraries Using Quantitative High-Throughput Screening (AID 1296008); note: nearly all actives have a fitted effect of over 60% in size
recorded_conditions: Five cell lines viability, CellTiter-Glo ATP luminescence, 48-72 h
Experimental: Cell-based phenotypic screening is a commonly used approach to discover biological pathways, novel drug targets, chemical probes and high-quality hit-to-lead molecules. […] A pintool (Kalypsys) was used to transfer 23 nL of compound solution to the 1536-well assay plates. […] Plates were left at room temperature for 10 min before imaging the ATP-coupled luminescence using a ViewLux microplate imager (PerkinElmer, Waltham, MA).
Results filed as inconclusive are left out. The source made the active and inactive calls. Calls come from the whole dose curve; as a rule, active = well fitted inhibition curve with a large enough effect; inconclusive = small, poorly fitted or top-dose-only effect; inactive = flat fitted curve, though single readings scatter.
Choose the fitting class; nothing outside active, inactive is accepted.

molecule: CCc1oc2ccccc2c1C(=O)c1cc(Br)c(O)c(Br)c1
class_label: inactive
//
molecule: CCOc1cc(OCC)c(C(=O)CCC(=O)O)cc1OCC
class_label: inactive

Given CN(C)CCOC(=O)C(c1ccccc1)C1(O)CCCC1 (configuration not stated) , state the outcome it received in this test.
inactive

Hey, what did the test say about `CCCN(CCC)S(=O)(=O)c1ccc(C(=O)O)cc1` ?
active

Which result was noted for this molecule in the test: `Cc1cc(CC(=O)O)c(C)n1-c1ccc(Cl)cc1`
inactive

Given `C[N+]1(C)CCC(=C(c2ccccc2)c2ccccc2)CC1` , state the outcome it received in this test.
inactive

Just curious, what result did `N#CCC(=O)NN` get here?
inactive

###

System: JCK
method_description: qHTS profiling for inhibitors of Plasmodium falciparum proliferation (AID 504749); note: nearly all actives have a fitted effect of over 60% in size
recorded_conditions: P. falciparum in erythrocytes, SYBR Green DNA, 72 h; series mostly up to 28.7 µM
Results filed as inconclusive are left out. Active and inactive are the calls of the source. The call rests on the fitted dose curve; in most records, active means well fitted inhibition curve with a large enough effect; inconclusive means small, poorly fitted or top-dose-only effect; inactive means flat fitted curve, though single readings scatter.
Log the outcome using a class from label 1 = active, label 0 = inactive

compound: C=CCN1CCc2nc(N)sc2CC1
class_label: label 0
//
compound: CCCCC(CC)COC(=O)c1ccc(N(C)C)cc1 (configuration not stated)
class_label: label 0
//
compound: COc1ccc(/C=N/NC(=O)c2ccncc2)cc1OC
class_label: label 0
//
compound: O=C1C(=O)c2ccccc2C(O)=C1C1CCC(c2ccc(Cl)cc2)CC1 (configuration not stated)
class_label: label 1

Which result was noted for this compound in the test: `NCCNc1cccc2ccccc12`
label 0

Dear colleague, could you share the recorded outcome for `Cc1ccc2c(Br)cc(Br)c(O)c2n1` when you have a moment?
label 1

Please indicate how the test categorized `CCc1oc2ccccc2c1C(=O)c1cc(I)c(O)c(I)c1` .
label 0

Tell me the assay call for `CCCN(CCC)S(=O)(=O)c1ccc(C(=O)O)cc1` please.
label 0

Outcome logged for `c1ccc(-c2nc[nH]c2-c2ccccc2)cc1` in this assay:
label 0

Recorded test outcome, item `CCOC(=O)[C@H](CCc1ccccc1)N[C@@H](C)C(=O)N1[C@H](C(=O)O)C[C@H]2CCCC[C@@H]21`
label 0

# fetch the recorded call for `CN(C)CCC[C@@]1(c2ccc(F)cc2)OCc2cc(C#N)ccc21` here
label 0

Field: outcome | Entry: O=C(CCN1CCN2CCCC2C1)N1c2ccccc2Sc2ccc(Cl)cc21 (configuration not stated)
label 0

Just curious, what result did CC(=O)Nc1ccc(OCC(O)CNC(C)C)cc1 (configuration not stated) get here?
label 0

Hey, what did the test say about CCc1ccc(C(=O)C(C)CN2CCCCC2)cc1 (configuration not stated) ?
label 0
